# optical density listing for each entry below
TEST TARGET: T1, biotinylated goat anti-human kappa light chain
T1 construct: positive control of the ELISA
PROCEDURE SUMMARY: ELISA, positive control; further: test concentration or dose not given here
Kindly provide the numeric value in OD only, without the unit symbol.

1. 374_B02 (antibody, V domains shown, Group I) VH: EVQLLESGGGLVQPGGSLRLSCAASGFTFDSYSMHWVRQAPGKGLEWVAGINYNSGYTSYADSVKGRFTISRDNSKNTLYLQMNSLRAEDTAVYYCARAANWHDTHLDYWGQGTLVTVSS VL: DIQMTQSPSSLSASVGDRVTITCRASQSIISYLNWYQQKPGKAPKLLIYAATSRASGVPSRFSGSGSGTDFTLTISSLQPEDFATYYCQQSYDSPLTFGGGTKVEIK : 3.02
2. 370_D06 (antibody, V domains shown, Group I) VH: EVQLLESGGGLVQPGGSLRLSCAASGFTFSSYGMNWVRQAPGKGLEWVASINYNGGYTSYADSVKGRFTISRDNSKNTLYLQMNSLRAEDTAVYYCARAANWHDTHLDYWGQGTLVTVSS VL: DIQMTQSPSSLSASVGDRVTITCRASQSIISYLNWYQQKPGKAPKLVIYAATSLASGVPSRFSGSGSGTDFTLTISSLQPEDFATYYCQQSYSSPLTFGGGTKVEIK : 3.48
3. 365_G06 (antibody, V domains shown, Group II) VH: EVQLLESGGGLVQPGGSLRLSCAASGFTFDSYGMHWVRQAPGKGLEWVAGINYNGGYTSYADSVKGRFTISRDNSKNTLYLQMNSLRAEDTAVYYCARAATWHDTHLDYWGQGTLVTVSS VL: DIQMTQSPSSLSASVGDRVTITCRASQSILSYLNWYQQKPGKAPKLLIYAATSLASGVPSRFSGSGSGTDFTLTISSLQPEDFATYYCQQSDSTPLTFGGGTKVEIK : 3.34
4. 369_C06 (antibody, V domains shown, Group II) VH: EVQLLESGGGLVQPGGSLRLSCAASGFTFSSYSMHWVRQAPGKGLEWVSSINYNGGYKSYADSVKGRFTISRDNSKNTLYLQMNSLRAEDTAVYYCARAATWHDTHLDYWGQGTLVTVSS VL: DIQMTQSPSSLSASVGDRVTITCRASQSILSYVNWYQQKPGKAPKLLIYAATSRASGVPSRFSGSGSGTDFTLTISSLQPEDFATYYCQQSYDSPLTFGGGTKVEIK : 3.17

input: Provide optical density value for the following binder: 372_A09 (antibody, V domains shown, Group I) VH: EVQLLESGGGLVQPGGSLRLSCAASGFTFDSYGMNWVRQAPGKGLEWVSGINYNGGYTSYADSVKGRFTISRDNSKNTLYLQMNSLRAEDTAVYYCARAANWHDTALDYWGQGTLVTVSS VL: DIQMTQSPSSLSASVGDRVTITCRASQSILSYLNWYQQKPGKAPKLVIYAATSRASGVPSRFSGSGSGTDFTLTISSLQPEDFATYYCQQSYNSPLTFGGGTKVEIK
output: 3.5
